# Target or test system: TTBK1 (Homo sapiens, UniProt Q5TCY1)
# Construct: purchased Eurofins
# Sequence (Q5TCY1 whole entry): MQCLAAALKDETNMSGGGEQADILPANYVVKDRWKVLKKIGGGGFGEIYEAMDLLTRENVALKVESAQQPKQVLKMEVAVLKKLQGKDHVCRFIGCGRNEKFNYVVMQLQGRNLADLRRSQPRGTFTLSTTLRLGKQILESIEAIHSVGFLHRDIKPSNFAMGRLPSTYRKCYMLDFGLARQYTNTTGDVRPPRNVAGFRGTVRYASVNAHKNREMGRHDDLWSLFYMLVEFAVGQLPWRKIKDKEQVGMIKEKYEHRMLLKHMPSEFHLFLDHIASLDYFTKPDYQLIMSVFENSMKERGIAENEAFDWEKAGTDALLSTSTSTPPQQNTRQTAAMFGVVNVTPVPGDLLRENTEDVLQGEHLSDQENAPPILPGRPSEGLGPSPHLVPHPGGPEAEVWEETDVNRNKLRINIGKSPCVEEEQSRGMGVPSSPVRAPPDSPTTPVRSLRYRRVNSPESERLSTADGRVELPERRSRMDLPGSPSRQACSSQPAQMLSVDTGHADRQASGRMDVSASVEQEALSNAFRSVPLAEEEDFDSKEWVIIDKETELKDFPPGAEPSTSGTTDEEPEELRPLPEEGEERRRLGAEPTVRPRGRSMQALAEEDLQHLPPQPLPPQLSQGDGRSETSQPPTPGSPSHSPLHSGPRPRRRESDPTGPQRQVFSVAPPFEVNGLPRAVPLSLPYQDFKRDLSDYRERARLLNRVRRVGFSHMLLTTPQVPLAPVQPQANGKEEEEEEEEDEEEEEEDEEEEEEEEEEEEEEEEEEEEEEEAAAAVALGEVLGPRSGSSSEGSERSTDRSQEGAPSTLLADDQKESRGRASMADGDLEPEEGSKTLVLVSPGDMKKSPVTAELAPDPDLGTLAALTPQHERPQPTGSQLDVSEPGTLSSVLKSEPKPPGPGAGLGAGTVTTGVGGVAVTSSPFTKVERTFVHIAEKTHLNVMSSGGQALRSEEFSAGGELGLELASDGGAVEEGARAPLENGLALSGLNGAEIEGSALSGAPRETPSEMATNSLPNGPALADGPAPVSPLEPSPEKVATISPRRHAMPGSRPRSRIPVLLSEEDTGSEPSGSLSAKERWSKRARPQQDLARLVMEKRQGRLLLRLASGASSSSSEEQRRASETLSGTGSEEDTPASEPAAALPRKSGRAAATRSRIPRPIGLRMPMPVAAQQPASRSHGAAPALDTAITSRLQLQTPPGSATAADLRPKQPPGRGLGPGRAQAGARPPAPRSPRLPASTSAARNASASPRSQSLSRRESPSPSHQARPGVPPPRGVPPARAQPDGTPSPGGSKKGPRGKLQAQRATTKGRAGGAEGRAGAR
# Assay details: Eurofins enzymatic radiometric kinase assay
# Assay type: biochemical
# Condition: ATP at Km, dose–response 9-pt curve
Test readout: pIC50
The read-out pIC50 is expressed as -log10 of concentration in moles per litre.

The compound CC(C)(O)C#Cc1ccc2[nH]c3c(c2c1)-c1nc(N)ncc1CC3 [Compound 1] , when measured on TTBK1 (Homo sapiens, UniProt Q5TCY1), yielded pIC50 of 5.50

====

I'd appreciate it if you could supply PAK5 PoC at 1 μM values for the items below.
# Target or test system: PAK5 (Homo sapiens)
# Construct: purchased Eurofins (radiometric) / Eurofins DiscoverX scanMAX / Reaction Biology / SignalChem
# Sequence (Q9P286 whole entry): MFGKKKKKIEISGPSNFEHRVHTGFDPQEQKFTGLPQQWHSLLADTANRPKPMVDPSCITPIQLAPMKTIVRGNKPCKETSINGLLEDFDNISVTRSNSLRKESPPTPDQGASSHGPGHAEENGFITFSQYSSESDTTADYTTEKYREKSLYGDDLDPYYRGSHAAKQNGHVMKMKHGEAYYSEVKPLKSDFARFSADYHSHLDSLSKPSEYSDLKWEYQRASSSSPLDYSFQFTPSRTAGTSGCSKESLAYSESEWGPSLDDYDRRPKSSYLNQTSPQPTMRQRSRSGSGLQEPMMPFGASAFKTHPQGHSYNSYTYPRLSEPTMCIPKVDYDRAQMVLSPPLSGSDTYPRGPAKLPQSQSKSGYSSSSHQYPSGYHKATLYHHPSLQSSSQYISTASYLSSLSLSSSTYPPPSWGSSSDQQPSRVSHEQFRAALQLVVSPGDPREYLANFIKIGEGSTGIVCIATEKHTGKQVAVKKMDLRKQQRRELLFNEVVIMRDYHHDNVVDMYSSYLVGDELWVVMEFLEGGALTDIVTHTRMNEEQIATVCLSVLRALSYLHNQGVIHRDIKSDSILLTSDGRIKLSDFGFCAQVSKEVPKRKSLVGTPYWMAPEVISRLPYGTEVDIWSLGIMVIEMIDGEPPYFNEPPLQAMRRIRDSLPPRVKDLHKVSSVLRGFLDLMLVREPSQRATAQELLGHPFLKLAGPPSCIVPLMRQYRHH
# Assay details: Eurofins enzymatic radiometric kinase assay
# Type: biochemical
# Condition: ATP at Km, duplicate
Report the figure in PoC without appending any unit label.

Entry under test: `COC(C)(C)C#Cc1ccc2[nH]c3c(c2c1)-c1nc(N)ncc1CCC3` . Its PAK5 PoC at 1 μM was 88

GET /value?item= `CC(C)(O)C#Cc1ccc2[nH]c3c(c2c1)-c1nc(N)ncc1CC3` &field=PAK5 PoC at 1 μM returns 48

Briefly, PAK5 PoC at 1 μM measured for CC(C)(O)C#Cc1ccc2[nH]c3c(c2c1)-c1nc(N)ncc1CCC3 [AMG28, reference compound] : 3

Note to self: PAK5 PoC at 1 μM recorded for `CC(C)(O)C#Cc1ccc2[nH]cc(-c3ccnc(N)n3)c2c1` was 31

Lab book: PAK5 PoC at 1 μM of `CC(C)(O)C#Cc1ccc2[nH]c3c(c2c1)-c1nc(N)ncc1CCCC3` noted as 87

====

Could you please report measured MARK4 PoC at 1 μM for the items listed next?
# Target or test system: MARK4 (Homo sapiens, UniProt Q96L34)
# Construct: purchased Eurofins (radiometric) / Eurofins DiscoverX scanMAX / Reaction Biology / SignalChem
# Sequence (Q96L34 whole entry): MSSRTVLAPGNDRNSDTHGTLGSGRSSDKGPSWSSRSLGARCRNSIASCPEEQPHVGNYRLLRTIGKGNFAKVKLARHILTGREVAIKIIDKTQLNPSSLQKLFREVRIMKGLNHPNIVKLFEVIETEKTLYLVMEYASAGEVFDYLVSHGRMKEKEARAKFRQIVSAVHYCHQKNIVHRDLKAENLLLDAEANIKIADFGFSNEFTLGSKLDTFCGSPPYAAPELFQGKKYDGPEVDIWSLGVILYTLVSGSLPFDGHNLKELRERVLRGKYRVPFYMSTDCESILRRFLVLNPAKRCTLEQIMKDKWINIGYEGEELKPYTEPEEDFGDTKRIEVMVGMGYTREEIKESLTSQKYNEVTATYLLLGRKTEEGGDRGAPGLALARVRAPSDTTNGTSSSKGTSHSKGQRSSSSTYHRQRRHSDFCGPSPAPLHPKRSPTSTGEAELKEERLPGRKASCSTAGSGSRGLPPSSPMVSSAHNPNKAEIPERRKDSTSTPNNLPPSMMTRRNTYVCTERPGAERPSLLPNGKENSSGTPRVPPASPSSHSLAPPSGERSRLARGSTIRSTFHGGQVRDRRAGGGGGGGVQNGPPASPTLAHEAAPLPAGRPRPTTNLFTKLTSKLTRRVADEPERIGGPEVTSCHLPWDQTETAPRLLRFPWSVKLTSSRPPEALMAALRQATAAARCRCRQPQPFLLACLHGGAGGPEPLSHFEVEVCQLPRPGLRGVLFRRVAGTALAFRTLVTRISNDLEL
# Assay details: Eurofins enzymatic radiometric kinase assay
# Type: biochemical
# Condition: ATP at Km, duplicate
Field: numeric (PoC). Do not append units.

# molecule `CC(C)(O)C#Cc1ccc2[nH]c3c(c2c1)-c1nc(N)ncc1CCCC3` ; its MARK4 PoC at 1 μM = 86

The reported value for CC(C)(O)C#Cc1ccc2[nH]c3c(c2c1)-c1nc(N)ncc1CCC3 [AMG28, reference compound] in terms of MARK4 PoC at 1 μM is 18

// `CC(C)(O)C#Cc1ccc2[nH]c3c(c2c1)-c1nc(N)ncc1CC3` : MARK4 PoC at 1 μM value = 53

The value of MARK4 PoC at 1 μM measured for the molecule `CC(C)(O)C#Cc1ccc2[nH]cc(-c3ccnc(N)n3)c2c1` turned out to be 43

What the record says about `COC(C)(C)C#Cc1ccc2[nH]c3c(c2c1)-c1nc(N)ncc1CCC3` : MARK4 PoC at 1 μM is 103

====

Provide the reported # kinases < 10 PoC in enzyme panel of each item.
# Target or test system: 17-member enzymatic kinase assay panel
# Assay details: 17-member enzymatic kinase panel, number of kinases inhibited
# Assay type: biochemical
# Condition: 1 μM; of 17 kinases
Form: value (number only, do not type unit).

response.value for CC(C)(O)C#Cc1ccc2[nH]c3c(c2c1)-c1nc(N)ncc1CC3 [Compound 1] (field: # kinases < 10 PoC in enzyme panel) = 2

// field: # kinases < 10 PoC in enzyme panel; key: COC(C)(C)C#Cc1ccc2[nH]c3c(c2c1)-c1nc(N)ncc1CCC3 [Compound 11] ; value = 1

Per the record, CC(C)(O)C#Cc1ccc2[nH]c3c(c2c1)-c1nc(N)ncc1CCCC3 [Compound 2] has # kinases < 10 PoC in enzyme panel of 1

The compound CC(C)(O)C#Cc1ccc2[nH]cc(-c3ccnc(N)n3)c2c1 [Compound 3] showed # kinases < 10 PoC in enzyme panel equal to 3
